The measurements presented in this section are drawn from patent US20240182536A1.

Molecular target: T1, human IL-18 binding protein (IL-18BP) (human, UniProt O95998 31-194)
T1 sequence (looked up): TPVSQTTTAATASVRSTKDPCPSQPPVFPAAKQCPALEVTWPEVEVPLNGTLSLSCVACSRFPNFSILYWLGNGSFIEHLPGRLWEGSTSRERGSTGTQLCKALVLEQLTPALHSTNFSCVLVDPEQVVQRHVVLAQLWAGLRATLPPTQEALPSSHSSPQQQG
Assay: cell-based or functional assay
MEASUREMENT_NAME: HEK-Blue EC50 pM, +50 nM BP (pM)
Reply numerically in pM, unit not repeated.

IL-18 variant G3T, M60K, D157E (ligand) YFTKLESKLSVIRNLNDQVLFIDQGNRPLFEDMTDSDMRDNAPRTIFIISMYKDSQPRGKAVTISVKSEKISTLSSENKIISFKEMNPPDNIKDTKSDIIFFQRSVPGHDNKMQFESSSYEGYFLASEKERDLFKLILKKEDELGDRSIMFTVQNEE has a reported HEK-Blue EC50 pM, +50 nM BP of 0.65
